Tested on: CAKI-1 renal
assay-summary: NCI tumour cell line growth inhibition, 48 h

compound: O=C1c2ccccc2C(=O)C1(Cl)C1(S(=O)(=O)O)c2ccccc2-c2ccccc21
TGI: > 100 µM
--
compound: C[C@]12C=CC(=O)C=C1CC[C@H]1[C@@H]3C[C@@H](O)[C@](O)(C(=O)CO)[C@@]3(C)C[C@H](O)[C@@]12F
TGI: > 100 µM
--
compound: COc1cc(/C=C2\CCC(C)C3C2=NN(C(C)=O)C3c2cc(OC)c(OC)c(OC)c2)cc(OC)c1OC (centres undefined)
TGI: > 100 µM
--
compound: CCC(C)(C)/C(CC(O)(C(F)(F)F)C(F)(F)F)=N\O
TGI: > 100 µM
--
compound: COc1cc(-c2cc(=O)c3c(OC)c(OC)c(OC)c(OC)c3o2)c(OC)c(OC)c1OC
TGI: > 100 µM
--
compound: S=C(N/N=C/c1ccco1)NC12CC3CC(CC(C3)C1)C2
TGI: > 100 µM
--
compound: O=C(c1ccc(O)cc1)C1c2c3c(cc(O)c2C(c2ccc(O)cc2)C1c1cc(O)cc(O)c1)OC(c1ccc(O)cc1)C3c1cc2c(cc1O)OC(c1ccc(O)cc1)C2c1cc(O)cc(O)c1 (centres undefined)
TGI: > 12.5 µM
--
compound: Cn1cc(C2=C(c3ccc4ccccc4c3)C(=O)NC2=O)c2ccccc21
TGI: > 25 µM
--
compound: O=C(O)c1nc(-c2ccccc2)ncc1-c1nnnn1-c1ccccc1
TGI: > 100 µM

###

Test system: NCI-H23 lung
assay-summary: NCI tumour cell line growth inhibition, 48 h
outcome-measure: GI50

given-smiles: O=C1NC(=Nc2ccccc2)S/C1=C\c1ccc2ncccc2c1
outcome-measure: GI50
recorded-value: 5.89 µM
--
given-smiles: O=C(OCc1ccc2cccc(O)c2n1)N1CCN(C(=O)c2cc3cc(F)ccc3[nH]2)CC1
outcome-measure: GI50
recorded-value: 1.62 µM
--
given-smiles: CCN1CCN(c2ccc(Nc3cc(N(C)C(=O)Nc4c(Cl)c(OC)cc(OC)c4Cl)ncn3)cc2)CC1
outcome-measure: GI50
recorded-value: 4.35 µM
--
given-smiles: COC(=O)/C=C/c1cc(O)c2oc(-c3ccc(O)c(O)c3)c(C(=O)OC)c2c1
outcome-measure: GI50
recorded-value: 0.43 µM
--
given-smiles: CC(C)c1ccc(Nc2ccc3c(OCCCN4CCN(C)CC4)cccc3n2)cc1
outcome-measure: GI50
recorded-value: 11.9 µM
--
given-smiles: C/C(=C\CCc1ccoc1)CC/C=C(\C)CCCC1=CC(=O)OC1
outcome-measure: GI50
recorded-value: 4.74 µM

###

System: HOP-18 NSCLC
assay-summary: NCI tumour cell line growth inhibition, 48 h
This section presents compounds with their documented TGI values.

compound: CC1OC(n2cc(F)c(=O)[nH]c2=O)C=CC1O (stereo not given)
measurement-target: HOP-18 NSCLC
TGI: > 100 µM
--
compound: C=C(C=O)[C@@H]1C2OC(=O)C(=C)[C@@H]2CC(O)[C@@]1(C)CC (stereo not given in full)
measurement-target: HOP-18 NSCLC
TGI: 41.3 µM
--
compound: COc1ccc(C2S/C(=C\c3ccccc3O)C(=O)N2NC(=O)Cc2ccccc2)cc1 (stereo not given)
measurement-target: HOP-18 NSCLC
TGI: > 100 µM
--
compound: Cc1cc(=O)[nH]c(NN2C(Cl)C(=O)C2c2cccc(O)c2)n1 (stereo not given)
measurement-target: HOP-18 NSCLC
TGI: > 100 µM
--
compound: O=c1nc2occc2cn1C1CC(O)C(CO)O1 (stereo not given)
measurement-target: HOP-18 NSCLC
TGI: > 100 µM
